# Dmax listing for each entry below
Target: IRAK-4 (Homo sapiens, UniProt Q9NWZ3)
Sequence (Q9NWZ3 1-460): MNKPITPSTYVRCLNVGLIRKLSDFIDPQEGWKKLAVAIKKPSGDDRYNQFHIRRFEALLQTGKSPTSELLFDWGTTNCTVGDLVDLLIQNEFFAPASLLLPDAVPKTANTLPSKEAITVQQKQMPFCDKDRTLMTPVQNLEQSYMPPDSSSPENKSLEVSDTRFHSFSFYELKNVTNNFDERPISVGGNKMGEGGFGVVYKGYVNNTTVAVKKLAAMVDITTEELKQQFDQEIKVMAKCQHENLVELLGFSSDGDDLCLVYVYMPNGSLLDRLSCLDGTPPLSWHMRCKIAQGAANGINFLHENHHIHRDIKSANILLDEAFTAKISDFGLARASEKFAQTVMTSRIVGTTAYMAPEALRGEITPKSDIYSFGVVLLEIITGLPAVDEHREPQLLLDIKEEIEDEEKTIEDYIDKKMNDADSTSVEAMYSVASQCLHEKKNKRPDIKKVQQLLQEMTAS
Experiment: IRAK-4 ELISA, PBMC degradation
Type: cell-based
Design: endogenous in cells; host or cells: PBMC
Details: treated overnight

Check out these entries, answers already filled in.
MOLECULE | TEST READOUT | REPORTED RESULT
O=C1CCC(N2C(=O)c3ccc(N4CC(F)(CN5CCC(n6cc7cc(NC(=O)c8cnn9ccc(N%10C[C@H]%11C[C@@H]%10CO%11)nc89)c(OCC8CC8)cc7n6)CC5)C4)cc3C2=O)C(=O)N1 (some centres unmarked) | Dmax | < 70%
CC(C)Oc1cc2c(cc1NC(=O)c1cnn3cccnc13)CN(C1CCN(CCC3(F)CN(c4ccc5c(c4)C(=O)N(C4CCC(=O)NC4=O)C5=O)C3)CC1)C2=O (centres unmarked) | Dmax | 80 to 90%

Which Dmax is reported for this molecule? O=C1CCC(NC(=O)c2ccc(N3CC(F)(CN4CCC(N5Cc6cc(NC(=O)c7cnn8cccnc78)c(OCC7CC7)cc6C5=O)CC4)C3)cc2F)C(=O)N1 (centres unmarked)
≥ 90%

Now consider O=C1CCC(N2C(=O)c3ccc(N4CC(F)(CN5CCC(n6cc7cc(NC(=O)c8cnn9cccnc89)c(N8CCOCC8)cc7n6)CC5)C4)cc3C2=O)C(=O)N1 (centres unmarked) .
80 to 90%

Now consider CC(C)Oc1cc2c(cc1NC(=O)c1cnn3cccnc13)CN(C1CCN(C3CN(c4ccc5c(c4)C(=O)N(C4CCC(=O)NC4=O)C5=O)C3)CC1)C2=O (centres unmarked) .
≥ 90%

###

System: IL6
Test: R848 stimulated IL6 inhibition assay in PBMC
Type: cell-based
Conditions: PBMC; human PBMCs, R848 stimulation, compound overnight, IL6 by MSD after 24 hrs; read-out: R848 stim IL6 inhibition IC50
# IC50 listing for each entry below

COMPOUND | IC50
CC(C)Oc1cc2c(cc1NC(=O)c1cnn3cccnc13)CN(C1CCN(CC3CCN(c4ccc(F)c(C(=O)NC5CCC(=O)NC5=O)c4)CC3)CC1)C2=O (centres unmarked) | 0.01 to 0.05 µM
O=C1CCC(N2C(=O)c3ccc(N4CC(F)(CN5CCC(n6cc7cc(NC(=O)c8cnn9cccnc89)c(OCC8CC8)cc7n6)CC5)C4)c(F)c3C2=O)C(=O)N1 (centres unmarked) | 0.01 to 0.05 µM
CC(C)Oc1cc2c(cc1NC(=O)c1cnn3cccnc13)CN(C1CCN(CC3(F)CN(c4ccc5c(c4)C(=O)N(C4CCC(=O)NC4=O)C5=O)C3)CC1)C2=O (centres unmarked) | 0.05 to 0.1 µM

Lab note: need IC50 for O=C1CCC(N2C(=O)c3ccc(N4CC[C@@H](O[C@H]5CC[C@H](n6cc7cc(NC(=O)c8cnn9cccnc89)c(OCC8CC8)cc7n6)CC5)C4)cc3C2=O)C(=O)N1 (some centres unmarked) on IL6, anyone have it?
0.05 to 0.1 µM

Now consider O=C1CCC(N2C(=O)c3ccc(N4CCN(C[C@H]5CC[C@H](N6Cc7cc(NC(=O)c8cnn9cccnc89)c(N8CCN(CC(F)F)CC8)cc7C6=O)CC5)CC4)cc3C2=O)C(=O)N1 (some centres unmarked) .
0.01 to 0.05 µM

###

Biological target: IRAK-4 (Homo sapiens)
Assay: IRAK-4 ELISA, PBMC degradation
Assay type: cell-based
Design: endogenous in cells; host or cells: PBMC
Details: treated overnight
TEST READOUT: DC50

MOLECULE | EXPERIMENTAL TARGET | REPORTED RESULT
COc1cc(N2CC(F)(CN3CCC(n4cc5cc(NC(=O)c6cnn7cccnc67)c(OC(C)C)cc5n4)CC3)C2)cc2c1C(=O)N(C1CCC(=O)NC1=O)C2=O (stereo not drawn) | IRAK-4 (Homo sapiens) | < 1 nM
C[C@H](Oc1cc2nn(C3CCN(CC4(F)CN(c5ccc6c(c5)C(=O)N(C5CCC(=O)NC5=O)C6=O)C4)CC3)cc2cc1NC(=O)c1cnn2cccnc12)C1CC1 (stereo partly drawn) | IRAK-4 (Homo sapiens) | 1 to 5 nM
CN1CC(Oc2cc3c(cc2NC(=O)c2cnn4cccnc24)CN(C2CCN(CC4CN(c5ccc6c(c5)C(=O)N(C5CCC(=O)NC5=O)C6=O)C4)CC2)C3=O)C1 (stereo not drawn) | IRAK-4 (Homo sapiens) | ≥ 10 nM
CC(C)Oc1cc2c(cc1NC(=O)c1cnn3cccnc13)CN(C[C@@H](F)C1CCN(CC3CN(c4cccc5c4n(C)c(=O)n5C4CCC(=O)NC4=O)C3)CC1)C2=O (stereo partly drawn) | IRAK-4 (Homo sapiens) | < 1 nM

Which DC50 is reported for this molecule? O=C1CCC(N2C(=O)c3ccc(N4CCO[C@H](CN5CCC(n6cc7cc(NC(=O)c8cnn9cccnc89)c(OCC8CC8)cc7n6)CC5)C4)cc3C2=O)C(=O)N1 (stereo partly drawn)
< 1 nM

###

Target: IRAK-4 (Homo sapiens, UniProt Q9NWZ3)
Assay: IRAK-4 ELISA, OCI-Ly10 degradation
Type: cell-based
Design: endogenous in cells
Conditions: OCI-Ly10, OCI-Ly10 cells, treated overnight
Method: Reagents: Human IRAK-4 Matched Antibody Pair Kit (Abcam ab218182) and ELISA Accessory Pack (Abcam ab210905). Cell Treatment and Lysis: 1. OCI-Ly10: 200,000 cells are seeded at 1×10^6/ml in 96-well U-bottom plates 200 ul per well, treated with compound the same day. Incubate overnight. 2. PBMC: 800,000 cells are seeded at 2×10^6/ml in 96-well U-bottom deep-well plates, 400 ul per well, treated with compound the same day. […] Cell lysate is collected and analyzed by ELISA for IRAK-4 levels.
TEST READOUT: Dmax

Check out these entries, answers already filled in.
COMPOUND | Dmax
COc1c(N2CC(CN3CCC(n4cc5cc(NC(=O)c6cnn7cccnc67)c(OCC6CC6)cc5n4)CC3)C2)ccc2c1C(=O)N(C1CCC(=O)NC1=O)C2=O (stereo not shown) | ≥ 90%
O=C1CCC(N2C(=O)c3ccc(N4CCC(CN5CCC(n6cc7cc(NC(=O)c8cnn9cc(Cl)cnc89)c(OCC8CC8)cc7n6)CC5)CC4)cc3C2=O)C(=O)N1 (stereo not shown) | ≥ 90%
O=C1CCC(N2C(=O)c3ccc(N4CC(CN5CCC(N6Cc7cc(NC(=O)c8cnn9cccnc89)c(N8CCC(N9CCC9)CC8)cc7C6=O)CC5)C4)cc3C2=O)C(=O)N1 (stereo not shown) | ≥ 90%
O=C1CCC(N2Cc3cc(CCN4CCC(n5cc6cc(NC(=O)c7cnn8cccnc78)c(OCC7CC7)cc6n5)CC4)ccc3C2=O)C(=O)N1 (stereo not shown) | ≥ 90%
O=C1CCC(N2Cc3cc(N4CC(CN5CCC(n6cc7cc(NC(=O)c8cnn9cccnc89)c(C8CC8)cc7n6)CC5)C4)ccc3C2=O)C(=O)N1 (stereo not shown) | 70 to 80%

Which Dmax is reported for this compound? O=C1CCC(N2Cc3cc(N4CC(CN5CCC(N6Cc7cc(NC(=O)c8cnn9cccnc89)c(OCC8CC8)cc7C6=O)CC5)C4)ccc3C2=O)C(=O)N1 (stereo not shown)
70 to 80%

Now consider CC(C)Oc1cc2c(cc1NC(=O)c1cnn3cccnc13)CN([C@H]1CCN(CC3CCN(c4ccc5c(c4)C(=O)N(C4CCC(=O)NC4=O)C5=O)CC3)C[C@@H]1F)C2=O (stereo partly shown) .
≥ 90%

Now consider CC(C)Oc1cc2c(cc1NC(=O)c1cnn3cccnc13)CN(C1CCN(CC3CN(c4ccc5c(c4)C(=O)N(C4CCC(=O)NC4=O)C5=O)C3)CC1)C2=O (stereo not shown) .
≥ 90%

Now consider O=C1CCC(N2Cc3cc(CCN4CCC(N5Cc6cc(NC(=O)c7cnn8cccnc78)c(N7CCOCC7)cc6C5=O)CC4)ccc3C2=O)C(=O)N1 (stereo not shown) .
< 70%

Now consider CC(C)(O)c1cc2nn(C3CCN(CC4CN(c5ccc6c(c5)C(=O)N(C5CCC(=O)NC5=O)C6=O)C4)CC3)cc2cc1NC(=O)c1cnn2cccnc12 (stereo not shown) .
70 to 80%

Now consider O=C1CCC(N2Cc3cc(OCCOCCN4CCC(n5cc6cc(NC(=O)c7cnn8cccnc78)c(OCC7CC7)cc6n5)CC4)ccc3C2=O)C(=O)N1 (stereo not shown) .
80 to 90%

Now consider COc1cc2nn(C3CCN(CC4CN(c5ccc6c(c5)CN(C5CCC(=O)NC5=O)C6=O)C4)CC3)cc2cc1NC(=O)c1cnn2cccnc12 (stereo not shown) .
70 to 80%

Now consider Cc1cnc2c(C(=O)Nc3cc4cn(C5CCN(CC6CCN(c7ccc8c(c7)C(=O)N(C7CCC(=O)NC7=O)C8=O)CC6)CC5)nc4cc3OCC3CC3)cnn2c1 (stereo not shown) .
≥ 90%

Now consider O=C1CCC(N2C(=O)c3ccc(N4CCC(CN5CCC(N6Cc7cc(NC(=O)c8cnn9cccnc89)c(OCC8CC8)cc7C6=O)CC5)CC4)cc3C2=O)C(=O)N1 (stereo not shown) .
≥ 90%

Now consider COc1cc2nn([C@H]3CC[C@H](N(C)C4CN(c5ccc6c(c5)C(=O)N(C5CCC(=O)NC5=O)C6=O)C4)CC3)cc2cc1NC(=O)c1cnn2cccnc12 (stereo partly shown) .
≥ 90%

Now consider O=C1CCC(NC(=O)c2ccc(N3CC(CN4CCC(n5cc6cc(NC(=O)c7cnn8cc(Cl)cnc78)c(OCC7CC7)cc6n5)CC4)C3)cc2F)C(=O)N1 (stereo not shown) .
≥ 90%

Now consider CC(C)Oc1cc2c(cc1NC(=O)c1cnn3cccnc13)CN([C@H]1CC[C@H](N(C)C3CN(c4ccc5c(c4)C(=O)N(C4CCC(=O)NC4=O)C5=O)C3)CC1)C2=O (stereo partly shown) .
≥ 90%

Now consider O=C1CCC(N2C(=O)c3ccc(N4CCN(CCN5CCC([C@H](F)CN6Cc7cc(NC(=O)c8cnn9cccnc89)c(N8CCOCC8)cc7C6=O)CC5)CC4)cc3C2=O)C(=O)N1 (stereo partly shown) .
≥ 90%

Now consider O=C1CCC(N2C(=O)c3ccc(N4CCC(F)(CN5CCC(n6cc7cc(NC(=O)c8cnn9cccnc89)c(OCC8CC8)cc7n6)CC5)CC4)cc3C2=O)C(=O)N1 (stereo not shown) .
≥ 90%

Now consider O=C1CCC(N2C(=O)c3ccc(N4CCC(CN5CCC(N6Cc7cc(NC(=O)c8cnn9cccnc89)c(N8CCC(N9CCC9)CC8)cc7C6=O)CC5)CC4)cc3C2=O)C(=O)N1 (stereo not shown) .
≥ 90%

Now consider O=C1CCC(N2C(=O)c3ccc(N4CC(CN5CCC(n6cc7cc(NC(=O)c8cnn9cccnc89)c(OCC8CC8)cc7n6)CC5)C4)cc3C2=O)C(=O)N1 (stereo not shown) .
≥ 90%

Now consider CC(C)Oc1cc2c(cc1NC(=O)c1cnn3cccnc13)CN(C1CCN(C3CCN(c4ccc5c(c4)C(=O)N(C4CCC(=O)NC4=O)C5=O)CC3)CC1)C2=O (stereo not shown) .
≥ 90%
